Catalogue of pEC50 readings, one per entry.
# System: ATF4 luciferase reporter in HEK293T cells
# Assay info: ATF4-Luc assay (in vitro model of VWMD)
# Format: cell-based, human
# Test conditions: Homo sapiens, HEK-293T, 7 h, HEK293T cells carrying the ATF4 luciferase reporter, 1 μg/mL tunicamycin, One Glo luminescence
# Experimental: In order to test exemplary compounds of the invention in a cellular context, a stable VWMD cell line was first constructed. […] HEK293T cells carrying the ATF4 luciferase reporter were plated on polylysine coated 384-well plates (Greiner Bio-one) at 30,000 cells per well. […] Luminescence was measured using One Glo (Promega) as specified by the manufacturer. […]
pEC50: −log10 of the molar value.

[
  {
    "Substance smiles": "O=C(NC12CC(n3cc(OCCOC(F)(F)F)nn3)(C1)C2)[C@H]1C[C@@H](O)c2cc(Cl)ccc2O1",
    "Recorded metric": "pEC50",
    "Result": "> 8.00"
  },
  {
    "Substance smiles": "O=C(COc1ccc(Cl)c(F)c1)NC12CC(n3cc(C(=O)N[C@H]4C[C@@H](OC(F)(F)F)C4)cn3)(C1)C2",
    "Recorded metric": "pEC50",
    "Result": "6.60 to 7.30"
  },
  {
    "Substance smiles": "O=C(NC12CC(c3cnc(OCCOC(F)(F)F)o3)(C1)C2)[C@H]1C[C@@H](O)c2cc(Cl)ccc2O1",
    "Recorded metric": "pEC50",
    "Result": "> 8.00"
  },
  {
    "Substance smiles": "COc1ccc2nn([C@H]3CC[C@H](NC(=O)COc4ccc(Cl)c(Cl)c4)CC3)cc2n1",
    "Recorded metric": "pEC50",
    "Result": "> 8.00"
  }
]

Input: Observed pEC50 on ATF4 luciferase reporter in HEK293T cells for `O=C(NC12CC(n3ccc([C@H]4C[C@@H](OC(F)(F)F)C4)n3)(C1)C2)[C@H]1C[C@@H](O)c2cc(Cl)ccc2O1` , please.
Output: 6.60 to 7.30

Input: Observed pEC50 on ATF4 luciferase reporter in HEK293T cells for `O=C(NC12CC(n3cc(C[C@H]4C[C@@H](OC(F)(F)F)C4)cn3)(C1)C2)[C@H]1C[C@@H](O)c2cc(Cl)c(F)cc2O1` , please.
Output: > 8.00

Input: Observed pEC50 on ATF4 luciferase reporter in HEK293T cells for `C[C@H](COC(F)(F)F)N(C)c1cnn(C23CC(NC(=O)[C@H]4C[C@@H](O)c5cc(Cl)ccc5O4)(C2)C3)c1` , please.
Output: 5.70 to 6.30
